Target: T1, mouse DLL4 on cells (mouse, UniProt Q9JI71 27-686)
T1 construct: whole, on cells; also called mouse DLL4-293G; mu DLL4 cells
T1 sequence (Q9JI71 27-686): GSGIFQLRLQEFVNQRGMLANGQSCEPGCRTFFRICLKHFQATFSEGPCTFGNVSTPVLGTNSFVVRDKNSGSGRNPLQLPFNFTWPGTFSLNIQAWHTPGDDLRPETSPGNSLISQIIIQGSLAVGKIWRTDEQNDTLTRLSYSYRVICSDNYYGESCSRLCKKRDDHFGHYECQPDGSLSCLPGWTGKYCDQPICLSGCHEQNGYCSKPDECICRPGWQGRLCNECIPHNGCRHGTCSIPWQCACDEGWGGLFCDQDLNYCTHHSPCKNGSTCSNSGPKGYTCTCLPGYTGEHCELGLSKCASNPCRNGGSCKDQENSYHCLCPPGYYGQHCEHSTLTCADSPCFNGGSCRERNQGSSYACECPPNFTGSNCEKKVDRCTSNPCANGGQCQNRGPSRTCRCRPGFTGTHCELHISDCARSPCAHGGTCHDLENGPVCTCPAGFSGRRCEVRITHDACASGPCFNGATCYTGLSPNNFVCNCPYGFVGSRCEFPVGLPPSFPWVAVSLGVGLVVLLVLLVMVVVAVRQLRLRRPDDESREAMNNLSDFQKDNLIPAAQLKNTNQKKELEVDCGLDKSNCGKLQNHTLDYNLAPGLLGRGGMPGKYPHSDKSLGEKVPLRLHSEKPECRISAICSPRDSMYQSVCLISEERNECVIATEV
Assay: FACS, DLL4 cells
EXPERIMENTAL READOUT: pEC50
Notebook: values listed as pEC50 are -log10 of the concentration (mol/L).

The cases that follow already have their pEC50 on record.
14A11 chimeric antibody (antibody, human IgG1, V domains shown, also called Chimera of 14A11) VH: EVQLQQSGPELAKPGSSVKISCKASGYTFTNSYISWIKQTTGQGLEYVGYINTGSGGADYNEKFKGKATLTVDKSSRTAFMQLSSLTPGDSAVYYCAKSILLGSTCYFDYWGQGVLVTVSS VL: NTVLTQSPALAVSLGQRVTISCKASRSVSSPMYSYIYWYQQKPGQQPKLLIYRASTLASGVPARFSGSGSGTDFTLNIDPVEADDIATYFCQQSWSDPFTFGSGTKLEIKR	8.67
37D10 chimeric antibody (antibody, human IgG1, V domains shown, also called Chimera of 37D10) VH: AVQLVESGGGLVQPKESLKISCAASGFTFSNAAMYWVRLAPGKGLEWVARIRTKPNNYATYYAESVKGRFTISRDDSKSMVYVQMDNLKTEDTAMYYCTAAPWRDSYAHVYWGQGVMVTVSS VL: DIQMTQSPPVLSASVGDRVTLSCKASQNIHKNLDWYQQKHGDAPKLLIYYTDHLQTGVPSRFSGSGSATDYTLTISSLQPEDVATYYCYQYNGGPFTFGSGTKLEIKR	9.00
1A11 chimeric antibody (antibody, human IgG1, V domains shown, also called Chimera of 1A11; 1A11 (chimera)) VH: EVQLVESGGGLVQPGRSMKLSCAASGFTFRNFPMAWVRQAPTRGLEWVATISSSDGTTYYRDSVKGRFTISRDNAKSTLYLQVNSLRSEDTATYYCSRGYYNSPFAYWGQGTLVTVSS VL: DIQMTQSPASLSASLGETVTIECRASEDIYSNLAWYQQKPGNSPQLLIFDTNNLADGVPSRFSGSGSGTQSSLKINSLQSEDVASYFCQQYNNYPPTFGGGTKLELKR	9.13
15D6 chimeric antibody (antibody, human IgG1, V domains shown, also called Chimera of 15D6) VH: EVQLQQSGPELAKPGSSVKISCKASGYTFTSSYISWIKQTTGQGLEYIGYINTGSGGTDYNEKFKDKATLTVDKSSRTVFMQLSSLTPGDSAVYYCAKSILLGSTYYLDYWGQGVMVTVSS VL: DTVLTQSPALAVSLGQRVTISCKASRSLSSPMYSYIYWYQQKLGQQPRLLIYRASTLASGVPARFSGSGSGTDFTLNIDPVEADDIATYFCQQSWSDPFTFGSGTKLEIKR	8.74

# context switch: different binder, same pEC50
Can you share its pEC50? I mean this binder: 32C7 chimeric antibody (antibody, human IgG1, V domains shown, also called Chimera of 32C7) VH: EVQLVESGGGLVQPGRSLKLSCLASGFPFSSVWMTWIRQAPGKGLEWIATITNSGASTYYSASVKGRFTISRDNVKSTLYLQMTSLGSEDTATYYCTRVGTSFDYWGQGVMVTVSS VL: DIQMTQSPASLSASLGETVTIECRASDDIYNGLAWFQQKPGKSPQLLIYDANTLHTGVPSRFSGSGSGTQFSLKINSLQSEDVASYFCQQFYDYPPYTFGAGTKLELKR
8.39
